- measurement.target: BTK enzyme (recombinant full-length BTK, hBTK) (Homo sapiens, UniProt Q06187)
- Construct: recombinant protein from baculovirus-transfected S 19 cells: full-length BTK, 6 HIS-tag cleaved; 6 HIS-tag (cleaved yes); made in house
- Sequence (Q06187 whole entry): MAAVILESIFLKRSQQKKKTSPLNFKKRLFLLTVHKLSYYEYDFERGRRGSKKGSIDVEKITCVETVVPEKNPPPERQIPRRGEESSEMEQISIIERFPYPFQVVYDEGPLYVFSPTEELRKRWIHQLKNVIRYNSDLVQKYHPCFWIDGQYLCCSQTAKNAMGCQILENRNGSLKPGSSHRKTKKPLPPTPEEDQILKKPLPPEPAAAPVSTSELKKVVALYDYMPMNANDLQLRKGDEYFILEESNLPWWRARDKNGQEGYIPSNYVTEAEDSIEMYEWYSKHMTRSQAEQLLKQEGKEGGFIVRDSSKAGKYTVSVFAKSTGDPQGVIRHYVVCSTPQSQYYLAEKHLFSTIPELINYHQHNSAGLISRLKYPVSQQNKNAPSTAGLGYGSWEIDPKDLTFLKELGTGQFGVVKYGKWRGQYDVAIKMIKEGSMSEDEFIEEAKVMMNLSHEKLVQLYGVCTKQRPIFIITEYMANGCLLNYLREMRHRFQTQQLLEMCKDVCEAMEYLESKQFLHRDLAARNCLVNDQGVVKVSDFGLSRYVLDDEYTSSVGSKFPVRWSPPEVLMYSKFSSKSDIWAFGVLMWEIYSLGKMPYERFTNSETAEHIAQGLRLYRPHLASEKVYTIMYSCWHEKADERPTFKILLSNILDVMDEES
- assay: Btk enzyme activity assay (LANCE TR-FRET)
- Assay type: biochemical
- measurement.context: 50 pM hBTK, 25 μM ATP, 60 minute compound and enzyme incubation, concentration range 1 μM to 0.017 nM, read-out: BTK binding IC50
metric.name: IC50 (nM)

Some entries whose results are on file:
>>> endpoint_value("COc1cc(C(=O)Nc2cc(C(F)(F)F)ccn2)ccc1-c1nc([C@H]2CN(C3CN(Cc4ccccc4F)C3)[C@@H](C)CO2)n2ccnc(N)c12 [Example 32]")
6.41
>>> endpoint_value("CNC(=O)N1C[C@H](c2nc(-c3ccc(C(=O)Nc4cc(C(F)(F)F)ccn4)c(F)c3)c3c(N)nccn23)CC[C@@H]1C [Example 94]")
0.374

A: CCOc1cc(C(=O)Nc2cc(C(F)(F)F)n(C)n2)ccc1-c1nc([C@H]2CN(C(=O)[C@H](C)O)[C@@H](C)CO2)n2c(Cl)cnc(N)c12 [Example 6]
B: C[C@@H]1CO[C@@H](c2nc(-c3ccc(C(=O)Nc4cc(C(F)(F)F)ccn4)cc3F)c3c(N)nccn23)CN1C1CCOCC1 [Example 73]
query: Consider entries A and B . Which has the numerically lower IC50? Identify your pick by its label.
result: B

1: C[C@H]1CO[C@@H](c2nc(-c3ccc(C(=O)Nc4cc(C(F)(F)F)ccn4)cc3F)c3c(N)nccn23)CN1C(=O)C1(C)COC1 [Example 77]
2: C[C@H]1CO[C@@H](c2nc(-c3ccc(C(=O)Nc4ccccn4)cc3)c3c(N)nccn23)CN1C(=O)C1CC1 [Example 62]
query: Consider entries 1 and 2 . Which has the numerically lower IC50? Identify your pick by its label.
result: 1
(1: 0.44 nM, 2: 10.8 nM)
